assay: Microplate spectrophotometric method (DCYA assay), fluorescence end-point; details: true positive; positive if 100-RI <95
assayMetric: DCYA binary classification: TP

Look over these answered cases.
- molecule: "C=C1C(=O)O[C@@H]2/C=C(\\C)CC/C=C(\\C)CC[C@@H]12 [Costunolide]"
  recordedNumber: 1
- molecule: "O=C(O)C(O)C(O)C(=O)O (centres unmarked) [Tartaric acid]"
  recordedNumber: 0
- molecule: "C=C(C)[C@@H]1CC=C(C)C(=O)C1 [L-Carvone]"
  recordedNumber: 1
- molecule: "O=c1c(-c2ccccc2)c1-c1ccccc1 [Diphenyl cyclopropenone]"
  recordedNumber: 0
- molecule: "CC1=C(C=O)C(C)(C)CC=C1 [Safranal]"
  recordedNumber: 1

A: CCC=CC=CC=O [2,4-Heptadienal]
B: O=c1ccc2ccccc2o1 [Coumarin]
Between A and B , which one shows the larger DCYA binary classification: TP value? Selection: enter the item's label.
A
(A: 1, B: 0)

====

assay: NMR method: depletion of electrophile signal on reaction with DCYA; conditions: 30 min, 50 mM
assayMetric: Conversion at t30 (depletion of electrophile signal) (%)

Look over these answered cases.
- compound: "O=c1ccc2ccccc2o1"
  unitsOfMeasure: "%"
  recordedNumber: 0
- compound: "CC/C=C/C=O [t-2-Pentenal, trans-2-Pentenal]"
  unitsOfMeasure: "%"
  recordedNumber: 80

A: C=C1C(=O)O[C@@H]2/C=C(\C)CC/C=C(\C)CC[C@@H]12 [Costunolide]
B: CC(C)=CCCC(C)=CC=O
Between A and B , which one shows the larger Conversion at t30 (depletion of electrophile signal) value? Selection: enter the item's label.
A

====

assay: Microplate spectrophotometric method (DCYA assay), fluorescence end-point; details: false negative
assayMetric: DCYA binary classification: FN

Look over these answered cases.
- compound: "O=C1C=CC(=O)C=C1"
  recordedNumber: 0
- compound: "Clc1ccccc1"
  recordedNumber: 0
- compound: "C=C(C)C1CC=C(C=O)CC1 (stereo not shown)"
  recordedNumber: 1

a: O=c1c(-c2ccccc2)c1-c1ccccc1
b: O=C(OCc1ccccc1)c1ccccc1 [Benzyl benzoate]
Of a and b , which carries the smaller reported DCYA binary classification: FN figure? Selection: enter the item's label.
b

====

experiment: NMR method: depletion of electrophile signal on reaction with DCYA

- compound: "C=C1C(=O)O[C@@H]2C[C@@]3(C)CCC[C@H](C)C3=C[C@H]12"
  NMR Classification: "Strong"
- compound: "OCCc1ccc(O)c(O)c1 [3-Hydroxytyrosol]"
  NMR Classification: "Non^$"
- compound: "C=C1C(=O)O[C@@H]2/C=C(\\C)CC/C=C(\\C)CC[C@@H]12 [Costunolide]"
  NMR Classification: "Strong"
- compound: "CC/C=C/C=O [t-2-Pentenal, trans-2-Pentenal]"
  NMR Classification: "Strong"

====

assay: Microplate spectrophotometric method (DCYA assay), fluorescence end-point; conditions: microplate spectrophotometric method
assayMetric: DCYA assay reactivity / classification in words

Look over these answered cases.
- molecule: "Oc1cccc(O)c1 [Resorcinol]"
  result: "non-reactive"
- molecule: "CCCCBr [1-Bromobutane]"
  result: "non-reactive"
- molecule: "C=C1C(=O)O[C@@H]2/C=C(/C)[C@H](O)C[C@@H](O)C(=C)C[C@H](OC(=O)/C(C)=C\\C)[C@@H]12 [3 epi-hydroxyisonobilin]"
  result: "highly reactive"
- molecule: "C=C1CC(OC(=O)/C(C)=C/C)C2C(=C)C(=O)OC2/C=C(\\C)C(O)CC1O (stereo not drawn) [hydroxyiso-nobilin, hydroxyisonobilin]"
  result: "highly reactive"
- molecule: "Oc1ccc(O)cc1 [p-Hydroquinone]"
  result: "non-reactive"

Reported DCYA assay reactivity / classification in words for CC(C=O)Cc1ccc(C(C)(C)C)cc1 (stereo not drawn) [Lilial] was non-reactive
